- Tested on: RPS6KA6
- Set-up: species or system human, MV4-11 + K-562 + COLO205 + SK-N-BE2 + OVCAR-8
- Settings: read-out: apparent Kd; compound concentrations:100 nM and 1000 nM (sheet 'Samples'); n = 1
Reported potency estimated from few doses by item:
Metric: potency estimated from few doses (nM)

Compound	Numeric Result
CN1C[C@@H]2Cn3c(c(C4=C(c5cn(C)c6ccccc56)C(=O)NC4=O)c4ccccc43)C[C@H]2C1.Cl [RO0320557-001]	386
CN1CCC(C(=O)Nc2n[nH]c3nnc(-c4ccccc4)cc23)CC1.Cl	1150
CNc1cc(-c2ccc3c(N)n[nH]c3c2)nc(N)n1 [GSK2224810A]	899
